The values you see were collected from patent US9409900B2.

Target: glucokinase (Homo sapiens (Human))
Sequence (P35557 whole entry, species assumed): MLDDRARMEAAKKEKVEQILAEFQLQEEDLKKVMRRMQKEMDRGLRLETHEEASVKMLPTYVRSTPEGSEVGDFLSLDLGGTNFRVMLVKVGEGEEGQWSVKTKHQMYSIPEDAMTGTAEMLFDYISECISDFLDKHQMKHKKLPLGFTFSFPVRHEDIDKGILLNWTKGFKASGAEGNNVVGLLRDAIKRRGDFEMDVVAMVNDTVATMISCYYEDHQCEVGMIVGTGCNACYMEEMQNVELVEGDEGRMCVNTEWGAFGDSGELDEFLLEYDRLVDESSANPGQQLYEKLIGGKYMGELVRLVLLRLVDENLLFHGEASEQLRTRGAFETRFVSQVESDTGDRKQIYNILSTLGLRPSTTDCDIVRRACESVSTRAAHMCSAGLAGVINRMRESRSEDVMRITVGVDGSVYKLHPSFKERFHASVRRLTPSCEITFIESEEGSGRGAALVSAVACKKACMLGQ
Assay: Glucokinase Activation Assay
Settings: 5 mM glucose, 100 nM glucokinase, G6PDH-coupled, absorbance at 340 nm, pH 7.1
quantity.kind: EC50 (nM)

[[record]]
compound = "Cc1cnc(Nc2ccc(Oc3ccc(S(C)(=O)=O)nc3)c(CN3CCCC3=O)c2)s1 [Example 13]"
measured_target = "glucokinase (Homo sapiens (Human))"
endpoint_result = 2000

[[record]]
compound = "CS(=O)(=O)c1ccc(Oc2ccc(Nc3ccc(C(=O)O)cn3)cc2CN2CCCC2=O)cn1 [Example 6]"
measured_target = "glucokinase (Homo sapiens (Human))"
endpoint_result = 2000

[[record]]
compound = "CN(C)C(=O)c1ccc(Oc2ccc(Nc3ccccn3)cc2CN2CCCC2=O)cn1 [Example 65]"
measured_target = "glucokinase (Homo sapiens (Human))"
endpoint_result = 5000

[[record]]
compound = "CN(C)C(=O)c1ccc(Oc2ccc(Nc3ccc(CCC(=O)O)cn3)cc2CN2CCCC2=O)cn1 [Example 78]"
measured_target = "glucokinase (Homo sapiens (Human))"
endpoint_result = 1500

